Molecular target: Type II 5α-Reductase from Human Prostate (Homo sapiens)
Construct: The same procedure as above was used for preparations using tissue from prostate surgery; from tissue; host or cells: human prostate tissue from surgery, homogenate, 100,000×g pellet
Assay: Human Type II 5α-reductase assay (conversion of [3H]-testosterone to 5α-reduced metabolites)
Type: biochemical
Settings: pH 5.5, 0.3 μM; sodium acetate pH 5.5, 25°, 30 min; compared to control reaction mixtures; read-out: percent inhibition of Type II AR
OUTCOME_MEASURE: inhibition at 0.3 µM (%)
Field format: number, assumed %, no unit text.

{"SUBSTANCE_SMILES": "CN1C(=O)CC[C@]2(C)c3ccc(-c4cccc5cnccc45)cc3CC[C@@H]12", "SYSTEM_UNDER_TEST": "Type II 5α-Reductase from Human Prostate (Homo sapiens)", "UNIT_LABEL": "%", "inhibition at 0.3 µM": 33}
{"SUBSTANCE_SMILES": "COc1ccc2cc(-c3ccc4c(c3)CC[C@H]3N(C)C(=O)CC[C@]43C)ccc2c1", "SYSTEM_UNDER_TEST": "Type II 5α-Reductase from Human Prostate (Homo sapiens)", "UNIT_LABEL": "%", "inhibition at 0.3 µM": 25}
{"SUBSTANCE_SMILES": "CN1C(=O)CC[C@]2(C)c3ccc(Sc4ncccc4[N+](=O)[O-])cc3CC[C@@H]12", "SYSTEM_UNDER_TEST": "Type II 5α-Reductase from Human Prostate (Homo sapiens)", "UNIT_LABEL": "%", "inhibition at 0.3 µM": 31}
{"SUBSTANCE_SMILES": "CN1C(=O)CC[C@]2(C)c3ccc(C(c4ccccc4)c4ccccc4)cc3CC[C@@H]12", "SYSTEM_UNDER_TEST": "Type II 5α-Reductase from Human Prostate (Homo sapiens)", "UNIT_LABEL": "%", "inhibition at 0.3 µM": 59}

Next, consider the following molecule.
I would be grateful if you could share the reported inhibition at 0.3 µM for "CN1C(=O)CC[C@]2(C)c3ccc(-c4ccc(NC(=O)C(C)(C)C)nc4)cc3CC[C@@H]12" . 42

###

Target: Type II 5α-Reductase from Human Prostate (Homo sapiens, UniProt P31213)
Construct: The same procedure as above was used for preparations using tissue from prostate surgery; from tissue; host or cells: human prostate tissue from surgery, homogenate, 100,000×g pellet
Sequence (P31213 whole entry): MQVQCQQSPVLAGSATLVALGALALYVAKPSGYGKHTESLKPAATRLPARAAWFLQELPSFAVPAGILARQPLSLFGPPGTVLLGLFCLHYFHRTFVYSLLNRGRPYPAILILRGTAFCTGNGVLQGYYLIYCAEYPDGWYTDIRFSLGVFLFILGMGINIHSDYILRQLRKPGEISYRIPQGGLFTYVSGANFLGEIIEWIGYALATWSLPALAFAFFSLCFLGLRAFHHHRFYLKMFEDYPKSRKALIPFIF
Experiment: Human Type II 5α-reductase assay (conversion of [3H]-testosterone to 5α-reduced metabolites)
Assay type: biochemical
Conditions: pH 5.5, 0.3 μM; sodium acetate pH 5.5, 25°, 30 min; compared to control reaction mixtures; read-out: percent inhibition of Type II AR
Where inhibition at 0.3 µM equals or exceeds 60%, the correct label is true (1); where it does not, the label is false (0).

{"SUBSTANCE_SMILES": "CN1C(=O)CC[C@]2(C)c3ccc(-c4ccccc4F)cc3CC[C@@H]12", "SYSTEM_UNDER_TEST": "Type II 5α-Reductase from Human Prostate (Homo sapiens, UniProt P31213)", "CATEGORY": "false (0)"}

Please check the record "CN1C(=O)CC[C@]2(C)c3ccc(Sc4ccc(-c5ccccc5)nn4)cc3CC[C@@H]12" and state if its inhibition at 0.3 µM is at or above 60%. true (1)

// query: "CN1C(=O)CC[C@]2(C)c3ccc(-c4ccccc4C(F)(F)F)cc3CC[C@@H]12" false (0)

// query: "CN1C(=O)CC[C@]2(C)c3ccc(-c4c(F)c(F)c(Cl)c(F)c4F)cc3CC[C@@H]12" false (0)

// query: "CN1C(=O)CC[C@]2(C)c3ccc(-c4ccc5cc(O)ccc5c4)cc3CC[C@@H]12" false (0)
